# credit: PubChem BioAssay AID2685

protocol.details: qHTS Assay for Lipid Storage Modulators in Drosophila S3 Cells;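 as to cell number change: cells counted by Cell Tracker Red CMTPX staining in the red channel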
protocol.conditions: BODIPY lipid droplet fluorescence, 18-24 h, cells fed with added oleic acid; measured here: cell count max response
Screen size: about 320,000 compounds; about 2,100 (0.66%) were called active. About 53% were inconclusive and are not listed. Many of the other results were omitted from the sample, so actives are more common in it than they were.
Quick reference for cell number change among some molecules
Only the number, expressed in %, is required.

Use the examples below as a reference point.
1) Cc1cc(F)c(F)c(C(=O)N2C(C)CCCC2C)c1Cl (stereo not given) :: 0.056
2) CNC(=O)c1ccc(NC(=O)CC23CC4CC(CC(C4)C2)C3)cc1 :: 12.8
3) CN(C)c1ccc(CN(C(=O)c2cccs2)C2CCS(=O)(=O)C2)cc1 (stereo not given) :: 15.9
4) CCOC(=O)C1(CCOC)CCN(Cc2ccc(C3CCCCO3)s2)CC1 (stereo not given) :: -8.03
5) Cc1cc(F)c(F)c(C(=O)N2CCC(C)CC2)c1Cl :: 0.433
6) CCOc1ccc(-n2ccc(=O)c(C(=O)Nc3ccc(S(=O)(=O)Nc4nccs4)cc3)n2)cc1 :: -6.87

Turning now to a further molecule:
**Q:** Tell me cell number change reported for CCN(CC)C(=O)c1cccc(NC(=O)CC23CC4CC(CC(C4)C2)C3)c1
**A:** 17.9

* * *

protocol.details: qHTS Assay for Lipid Storage Modulators in Drosophila S3 Cells;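 as to cell number change: cells counted by Cell Tracker Red CMTPX staining in the red channel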
protocol.conditions: BODIPY lipid droplet fluorescence, 18-24 h, cells fed with added oleic acid; measured here: cell count max response
The whole screen tested about 320,000 compounds, of which about 2,100 (0.66%) were called active. Inconclusive results (about 53%) are left out. Shown is part of a subset that was picked to be rich in actives.
Record met whenever cell number change is at 10% or higher; record not met when lower.

// known answers, use as guide
1) Cc1c(NC(=O)C(C)N2CC(C)OC(C)C2)c(=O)n(-c2ccccc2)n1C (configuration not stated) :: met
2) CCOCCCNS(=O)(=O)c1cc2[nH]c3c(c2cc1C)C(=O)CC(C)(C)C3 :: met
3) Cc1ccc(C(CNC(=O)Nc2ccccc2)N2CCN(C)CC2)cc1 (configuration not stated) :: met
4) Cc1cc(CN2CCC(N3CCC(C(=O)NC4CC4)CC3)CC2)cc(C)c1O :: not met

**Q:** Reported cell number change at or above 10%? NC(=O)c1ccc(Oc2ccc3c(c2)CCC3)c([N+](=O)[O-])c1
**A:** not met

**Q:** Reported cell number change at or above 10%? O=C(N/N=C/c1ccccc1)c1ccc(NC(=O)c2ccc(F)cc2)cc1
**A:** not met

**Q:** Reported cell number change at or above 10%? NC(=O)c1ccc(Oc2ccc(Cl)cc2)c([N+](=O)[O-])c1
**A:** met

**Q:** Reported cell number change at or above 10%? Cc1csc(N(C(=O)Cc2ccccc2F)c2ccccc2)n1
**A:** not met

**Q:** Reported cell number change at or above 10%? O=c1c2[nH]c3ccc(F)cc3c2ncn1Cc1ccncc1
**A:** not met

**Q:** Reported cell number change at or above 10%? O=C(C1CCCN(Cc2ccc(Cl)cc2)C1)N1CCCCC1 (configuration not stated)
**A:** met

**Q:** Reported cell number change at or above 10%? Cn1c(=O)c(/C=C/c2ccc(F)cc2)nc2ccccc21
**A:** not met

**Q:** Reported cell number change at or above 10%? COc1ccccc1C(=O)Nc1cccc(N(C)S(C)(=O)=O)c1
**A:** not met

**Q:** Reported cell number change at or above 10%? Cc1ccc(C(CNC(=O)Nc2cccc(C)c2)N2CCN(C)CC2)cc1 (configuration not stated)
**A:** not met

**Q:** Reported cell number change at or above 10%? O=C(c1ccc(S(=O)(=O)Nc2cccc(C(F)(F)F)c2)cc1)N1CCC1
**A:** not met

**Q:** Reported cell number change at or above 10%? COc1ccc(S(=O)Cc2ccc(C(=O)NC3CC3)o2)cc1 (configuration not stated)
**A:** met

**Q:** Reported cell number change at or above 10%? Cc1ccc2c(c1)COc1c3ccc(C(=O)N4CCCCC4)cc3nn1-2
**A:** not met

**Q:** Reported cell number change at or above 10%? CCOc1ccc(N(CC(=O)NCC2CCCO2)S(=O)(=O)c2ccc(OC)c(OC)c2)cc1 (configuration not stated)
**A:** met

* * *

protocol.details: qHTS Assay for Lipid Storage Modulators in Drosophila S3 Cells;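 as to cell number change: cells counted by Cell Tracker Red CMTPX staining in the red channel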
protocol.conditions: BODIPY lipid droplet fluorescence, 18-24 h, cells fed with added oleic acid; measured here: cell count max response
Screen size: about 320,000 compounds; about 2,100 (0.66%) were called active. Inconclusive results (about 53%) are left out. The list comes from a sample in which actives are over-represented; it also holds close analogues and randomly drawn compounds.
Quick reference for cell number change among some compounds
Only the number, expressed in %, is required.

Use the examples below as a reference point.
1. Cc1ccccc1NC(=O)C(C)Sc1nnc(-c2ccncc2)n1CC1CCCO1 (centres undefined) :: 3.95
2. O=C(/C=C/c1ccco1)c1ccc(NC(=O)C23CC4CC(CC(C4)C2)C3)cc1 :: -23.6
3. Cc1c(OC(C)C(=O)NCc2ccncc2)ccc2c3c(c(=O)oc12)CCC3 (centres undefined) :: -1.18
4. COc1ccc(NC2CCCN(C(=O)CSc3ccccn3)C2)cc1OC (centres undefined) :: -4.53

Turning now to a further compound:
**Q:** Tell me cell number change reported for COc1ccc(NC2CCCN(C(=O)CCOc3ccccc3)C2)cc1 (centres undefined)
**A:** 2.67

* * *

protocol.details: qHTS Assay for Lipid Storage Modulators in Drosophila S3 Cells
protocol.conditions: BODIPY lipid droplet fluorescence, 18-24 h, cells fed with added oleic acid; series mostly up to 46.1 µM
Hit rate of the full screen: of about 320,000 compounds, about 2,100 (0.66%) were called active. About 53% were inconclusive and are not listed. The call rests on the fitted dose curve; in most records, active means well fitted inhibition curve with a large enough effect in the signal ratio, with a control signal flat (not every such curve was filed as active); inconclusive means small, poorly fitted or top-dose-only effect, or effect the other way, or a change in a side signal; inactive means flat fitted curve, though single readings scatter; the % refers to the signal ratio. The sample as a whole holds a higher share of actives than the screen did.
Choose the fitting class; nothing outside 1 (yes) = active, 0 (no) = inactive is accepted.

1) Cc1ccc(S(=O)(=O)CCC(=O)OCc2ccc(Cl)cc2)cc1 :: 0 (no)
2) COc1ccc(C(=O)NC(=S)NNC(=O)c2ccco2)cc1 :: 0 (no)
3) COc1cccc(CNCC(O)COc2ccc(C(=O)c3ccccc3)cc2)c1 (stereo unspecified) :: 0 (no)
4) O=C(c1cccnc1)N1CCN(S(=O)(=O)c2ccc(Cl)cc2)CC1 :: 0 (no)
5) CCOc1ccc(S(=O)(=O)NCC2CCCO2)cc1NC(=O)c1ccccc1F (stereo unspecified) :: 0 (no)
6) COc1ccc(S(=O)(=O)NCC2CCCO2)cc1NC(=O)c1ccccc1F (stereo unspecified) :: 1 (yes)
7) CCCSc1nnc(NC(=O)CSc2nc3[nH]c(=O)cc(O)c3s2)s1 :: 0 (no)
8) CC(C(=O)NC1CCCCC1)N1C(=O)C2C3C=CC(C3)C2C1=O (stereo unspecified) :: 1 (yes)

**Q:** Identify the outcome logged in this assay for the molecule shown: COc1ccc(N(C)S(=O)(=O)c2cccc(C(=O)Nc3nnc(C)s3)c2)cc1
**A:** 0 (no)

**Q:** Identify the outcome logged in this assay for the molecule shown: COc1ccc(S(=O)(=O)NCC2CCCO2)cc1C(=O)O (stereo unspecified)
**A:** 0 (no)

**Q:** Identify the outcome logged in this assay for the molecule shown: COc1ccc(N(C)S(=O)(=O)c2cccc(C(=O)Nc3nnc(C4CC4)s3)c2)cc1
**A:** 0 (no)

* * *

Quick reference for cell number change among some compounds
protocol.details: qHTS Assay for Lipid Storage Modulators in Drosophila S3 Cells;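 as to cell number change: cells counted by Cell Tracker Red CMTPX staining in the red channel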
protocol.conditions: BODIPY lipid droplet fluorescence, 18-24 h, cells fed with added oleic acid; measured here: cell count max response
The campaign covered roughly 320,000 compounds. About 2,100 (0.66%) were called active. Another 53% or so got no clear call; they are omitted. The full list was thinned out, with actives kept by preference.
Only the number, expressed in %, is required.

**Q:** Tell me cell number change reported for COCCNC(=O)C1(C)C=CC2(CCCCC2)N1C(=O)c1ccccc1 (stereo not given)
**A:** -12.7

**Q:** Tell me cell number change reported for CN(C)CCOc1ccc(C(C)(C)c2ccccc2)cc1
**A:** 10.7

**Q:** Tell me cell number change reported for Cc1cccc(C)c1NC(=S)NN1CCN(C)CC1
**A:** -31.3

**Q:** Tell me cell number change reported for CCCCCn1c(CN2CCN(Cc3ccccc3)CC2)nc2c1c(=O)[nH]c(=O)n2C
**A:** -7.44

**Q:** Tell me cell number change reported for CN1CCN(NC(=S)Nc2ccccc2)CC1
**A:** 5.3

**Q:** Tell me cell number change reported for CCOc1cc(/C=N/NC(=O)c2cccnc2)ccc1OC(=O)c1ccco1
**A:** -16.1

**Q:** Tell me cell number change reported for CCOc1ccc(N=NC2C(=O)N(C(N)=S)N=C2C)cc1 (stereo not given)
**A:** -27.4

**Q:** Tell me cell number change reported for O=C1/C(=C\c2cccnc2)CCc2ccccc21
**A:** -16.3

**Q:** Tell me cell number change reported for CC1=NN(C(N)=S)C(=O)C1N=Nc1ccccc1C (stereo not given)
**A:** 2.36
